- experimental system: Human ACVR2A (on cells) (human, UniProt P27037 20-513)
- Sequence (P27037 20-513): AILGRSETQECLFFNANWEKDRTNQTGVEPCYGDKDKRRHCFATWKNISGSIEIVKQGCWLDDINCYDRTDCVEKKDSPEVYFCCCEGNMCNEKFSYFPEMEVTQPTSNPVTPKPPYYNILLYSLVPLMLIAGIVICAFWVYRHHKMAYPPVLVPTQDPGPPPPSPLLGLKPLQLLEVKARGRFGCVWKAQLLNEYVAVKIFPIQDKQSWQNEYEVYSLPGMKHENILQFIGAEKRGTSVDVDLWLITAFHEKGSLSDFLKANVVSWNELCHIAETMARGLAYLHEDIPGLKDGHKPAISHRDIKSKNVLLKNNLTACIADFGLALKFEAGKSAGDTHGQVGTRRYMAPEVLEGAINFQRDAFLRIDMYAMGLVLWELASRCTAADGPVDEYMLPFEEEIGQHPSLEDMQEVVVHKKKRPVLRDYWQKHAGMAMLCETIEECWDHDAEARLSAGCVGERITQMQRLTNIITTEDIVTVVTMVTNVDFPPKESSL
- assay: cell-based or functional assay
attribute measured: Phospho-SMAD3 Human Skeletal Muscle GDF8 (AlphaLisa, primary human myotubes)
API note: the answer field is a bare number with no unit suffix.

Use these answered entries as a reference point.
binder | quantitative readout
367_G07 (antibody, V domains shown) VH: EVQLLESGGGLVQPGGSLRLSCAASGFTFDSYSMNWVRQAPGKGLEWVANINYNGGYTGYADSVKGRFTISRDNSKNTLYLQMNSLRAEDTAVYYCARSATWHDTHLDYWGQGTLVTVSS VL: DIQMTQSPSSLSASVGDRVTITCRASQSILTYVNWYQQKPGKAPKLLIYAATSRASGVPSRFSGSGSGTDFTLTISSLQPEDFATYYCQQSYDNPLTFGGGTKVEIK | 0.0068
376_B06 (antibody, V domains shown) VH: EVQLLESGGGLVQPGGSLRLSCAASGFTFSSYSMNWVRQAPGKGLEWVAGINYNSGYKGYADSVKGRFTISRDNSKNTLYLQMNSLRAEDTAVYYCARSATWHDTHLDYWGQGTLVTVSS VL: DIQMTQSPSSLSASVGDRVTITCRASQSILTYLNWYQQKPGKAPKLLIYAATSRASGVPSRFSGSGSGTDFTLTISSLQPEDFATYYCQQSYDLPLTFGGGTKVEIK | 0.0042

API: the following record is the query input.
Summary for this binder, 373_B11 (antibody, V domains shown) VH: EVQLLESGGGLVQPGGSLRLSCAASGFTFSSYSMNWVRQAPGKGLEWVANINYNSGYKGYADSVKGRFTISRDNSKNTLYLQMNSLRAEDTAVYYCARSATWHDTHLDYWGQGTLVTVSS VL: DIQMTQSPSSLSASVGDRVTITCRASQSILSYLNWYQQKPGKAPKLLIYAATSRASGVPSRFSGSGSGTDFTLTISSLQPEDFATYYCQQSYDNPLTFGGGTKVEIK : Phospho-SMAD3 Human Skeletal Muscle GDF8 (AlphaLisa, primary human myotubes) is 0.0008

Origin of values: patent US20210380703A1
